Target: T1, human LTBP1-proTGFβ1 complex (human, UniProt Q14766 873-1507)
T1 construct: range 873-1507; biotinylated in Octet and MSD-SET; also called hLTBP1-proTGFβ1; hLTBP1
T1 sequence (Q14766 873-1507 limits assumed, chain 1 of 2): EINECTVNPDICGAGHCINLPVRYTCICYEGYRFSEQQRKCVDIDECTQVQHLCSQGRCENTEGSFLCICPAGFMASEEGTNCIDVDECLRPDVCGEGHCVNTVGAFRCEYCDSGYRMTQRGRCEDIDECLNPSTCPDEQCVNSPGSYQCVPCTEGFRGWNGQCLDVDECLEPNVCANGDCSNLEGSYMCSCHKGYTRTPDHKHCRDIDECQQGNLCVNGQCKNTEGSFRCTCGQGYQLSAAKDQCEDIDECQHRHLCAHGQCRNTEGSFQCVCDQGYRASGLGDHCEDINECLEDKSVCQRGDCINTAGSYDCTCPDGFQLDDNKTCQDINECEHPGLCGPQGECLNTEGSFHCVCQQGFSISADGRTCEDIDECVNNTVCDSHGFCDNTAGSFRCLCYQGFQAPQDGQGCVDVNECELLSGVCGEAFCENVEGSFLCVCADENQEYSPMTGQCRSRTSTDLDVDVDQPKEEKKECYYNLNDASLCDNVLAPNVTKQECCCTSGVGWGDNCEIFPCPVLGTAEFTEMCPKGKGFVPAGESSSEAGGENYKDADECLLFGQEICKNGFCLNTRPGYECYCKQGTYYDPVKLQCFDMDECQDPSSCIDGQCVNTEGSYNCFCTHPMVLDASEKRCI
T1 sequence (chain, as listed by the source limits assumed, chain 2 of 2): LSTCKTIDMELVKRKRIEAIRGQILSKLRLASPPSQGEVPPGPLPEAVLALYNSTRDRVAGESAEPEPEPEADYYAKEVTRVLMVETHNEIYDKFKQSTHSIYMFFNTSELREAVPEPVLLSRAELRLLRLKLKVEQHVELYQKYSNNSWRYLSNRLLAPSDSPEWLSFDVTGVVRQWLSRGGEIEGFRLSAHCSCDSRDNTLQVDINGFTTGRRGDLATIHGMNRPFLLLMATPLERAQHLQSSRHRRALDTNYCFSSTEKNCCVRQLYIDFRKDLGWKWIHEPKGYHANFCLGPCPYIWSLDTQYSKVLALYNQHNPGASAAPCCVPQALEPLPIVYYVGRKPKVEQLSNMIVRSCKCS
Experiment: BLI (Octet)
Some binders, each annotated with its measured Kd.
MEASUREMENT_NAME: Kd (nM)

[[record]]
binder = "Ab15 (antibody, V domains shown) VH: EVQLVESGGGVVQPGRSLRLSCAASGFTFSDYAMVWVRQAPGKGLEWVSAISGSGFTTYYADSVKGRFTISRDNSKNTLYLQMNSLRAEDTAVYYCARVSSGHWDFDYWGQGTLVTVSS VL: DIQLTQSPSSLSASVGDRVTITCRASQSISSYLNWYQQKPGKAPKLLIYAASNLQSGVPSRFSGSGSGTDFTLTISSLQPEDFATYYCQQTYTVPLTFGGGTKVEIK"
unit_abbreviation = "nM"
measurement = 0.15

[[record]]
binder = "Ab32 (antibody, IgG4, V domains shown) VH: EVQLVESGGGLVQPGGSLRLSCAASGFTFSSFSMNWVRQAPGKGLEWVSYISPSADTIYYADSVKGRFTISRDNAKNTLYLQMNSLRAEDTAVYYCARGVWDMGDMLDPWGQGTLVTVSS VL: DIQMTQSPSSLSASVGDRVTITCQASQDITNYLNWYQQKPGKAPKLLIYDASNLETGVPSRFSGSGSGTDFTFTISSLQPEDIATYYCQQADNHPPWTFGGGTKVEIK"
unit_abbreviation = "nM"
measurement = 0.269

[[record]]
binder = "Ab18 (antibody, V domains shown) VH: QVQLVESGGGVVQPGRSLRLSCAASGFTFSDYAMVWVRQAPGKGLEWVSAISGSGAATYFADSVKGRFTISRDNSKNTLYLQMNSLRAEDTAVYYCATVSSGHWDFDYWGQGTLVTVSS VL: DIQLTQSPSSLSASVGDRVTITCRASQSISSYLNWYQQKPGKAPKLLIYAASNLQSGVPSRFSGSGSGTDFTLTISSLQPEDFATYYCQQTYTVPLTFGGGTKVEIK"
unit_abbreviation = "nM"
measurement = 0.312

[[record]]
binder = "Ab27 (antibody, V domains shown) VH: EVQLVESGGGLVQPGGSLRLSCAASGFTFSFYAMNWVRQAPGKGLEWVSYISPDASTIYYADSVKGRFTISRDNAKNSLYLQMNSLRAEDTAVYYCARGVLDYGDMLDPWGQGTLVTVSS VL: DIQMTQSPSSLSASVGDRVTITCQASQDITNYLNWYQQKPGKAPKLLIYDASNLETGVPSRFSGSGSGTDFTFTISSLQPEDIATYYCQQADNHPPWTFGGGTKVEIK"
unit_abbreviation = "nM"
measurement = 0.178

[[record]]
binder = "Ab2 (antibody, human IgG4 S228P, kappa, V domains shown) VH: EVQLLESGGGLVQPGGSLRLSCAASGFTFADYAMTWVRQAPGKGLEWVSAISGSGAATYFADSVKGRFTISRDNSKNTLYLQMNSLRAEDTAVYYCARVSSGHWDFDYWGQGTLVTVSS VL: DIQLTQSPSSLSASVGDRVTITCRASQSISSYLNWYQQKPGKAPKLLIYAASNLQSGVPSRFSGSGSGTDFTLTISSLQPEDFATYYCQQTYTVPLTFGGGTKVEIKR"
unit_abbreviation = "nM"
measurement = 0.165

[[record]]
binder = "Ab33 (antibody, IgG4, V domains shown) VH: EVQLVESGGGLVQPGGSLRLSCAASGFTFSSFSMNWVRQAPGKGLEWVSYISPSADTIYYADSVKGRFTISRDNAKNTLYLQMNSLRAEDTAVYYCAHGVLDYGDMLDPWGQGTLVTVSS VL: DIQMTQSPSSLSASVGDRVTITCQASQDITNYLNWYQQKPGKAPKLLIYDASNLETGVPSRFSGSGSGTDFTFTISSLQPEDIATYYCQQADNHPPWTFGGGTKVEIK"
unit_abbreviation = "nM"
measurement = 0.179

[[record]]
binder = "Ab12 (antibody, IgG4, V domains shown) VH: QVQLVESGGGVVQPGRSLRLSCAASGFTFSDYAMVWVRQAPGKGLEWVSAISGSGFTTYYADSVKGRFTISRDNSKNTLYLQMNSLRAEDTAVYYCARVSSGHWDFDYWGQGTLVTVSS VL: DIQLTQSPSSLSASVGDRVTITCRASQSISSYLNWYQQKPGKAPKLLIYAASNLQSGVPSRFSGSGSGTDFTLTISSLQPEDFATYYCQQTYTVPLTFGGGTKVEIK"
unit_abbreviation = "nM"
measurement = 0.157

